- Target Or Test System: shADAM9-His (His-tagged soluble human ADAM9) (human) (UniProt Q13443)
- Assay Info: BIACORE SPR; antibody captured on Fab2 goat anti-human Fc surface, shADAM9-His 6.25-100 nM as analyte; 1:1 Langmuir
Readout Name: Kd (nM)
Answers are plain numbers, in nM.

hMAB-A (2.3) (antibody, V domains shown) VH: EVQLVESGGGLVKPGGSLRLSCAASGFTFSSYWMHWVRQAPGKGLEWVGEIIPIFGHTNYNEKFKSRFTISLDNSKNTLYLQMGSLRAEDTAVYYCARGGYYYYGSRDYFDYWGQGTTVTVSS VL: DIVMTQSPDSLAVSLGERATISCRASQSVDYSGDSYMNWYQQKPGQPPKLLIYAASDLESGIPARFSGSGSGTDFTLTISSLEPEDFATYYCQQSHEDPFTFGQGTKLEIK ... 1.3
chMAB-A (antibody, V domains shown) VH: QVQLQQPGAELVKPGASVKLSCKASGYTFTSYWMHWVKQRPGQGLEWIGEIIPINGHTNYNEKFKSKATLTLDKSSSTAYMQLSSLASEDSAVYYCARGGYYYYGSRDYFDYWGQGTTLTVSS VL: DIVLTQSPASLAVSLGQRATISCKASQSVDYDGDSYMNWYQQIPGQPPKLLIYAASDLESGIPARFSGSGSGTDFTLNIHPVEEEDAATYYCQQSHEDPFTFGGGTKLEIK ... 3.6

Okay, now this binder:
Input: Consider the binder hMAB-A (1.1) (antibody, V domains shown) VH: EVQLVESGGGLVKPGGSLRLSCAASGFTFSSYWMHWVRQAPGKGLEWVGEIIPINGHTNYNEKFKSRFTISLDNSKNTLYLQMGSLRAEDTAVYYCARGGYYYYGSRDYFDYWGQGTTVTVSS VL: DIVMTQSPDSLAVSLGERATISCKASQSVDYDGDSYMNWYQQKPGQPPKLLIYAASDLESGIPARFSGSGSGTDFTLTISSLEPEDFATYYCQQSHEDPFTFGQGTKLEIK and give its measured Kd.
Output: 3.5
